Target Or System: TRPC5 (Homo sapiens)
Construct: expressed in transfected cells; host or cells: HEK 293
Sequence (Q9UL62 1-973): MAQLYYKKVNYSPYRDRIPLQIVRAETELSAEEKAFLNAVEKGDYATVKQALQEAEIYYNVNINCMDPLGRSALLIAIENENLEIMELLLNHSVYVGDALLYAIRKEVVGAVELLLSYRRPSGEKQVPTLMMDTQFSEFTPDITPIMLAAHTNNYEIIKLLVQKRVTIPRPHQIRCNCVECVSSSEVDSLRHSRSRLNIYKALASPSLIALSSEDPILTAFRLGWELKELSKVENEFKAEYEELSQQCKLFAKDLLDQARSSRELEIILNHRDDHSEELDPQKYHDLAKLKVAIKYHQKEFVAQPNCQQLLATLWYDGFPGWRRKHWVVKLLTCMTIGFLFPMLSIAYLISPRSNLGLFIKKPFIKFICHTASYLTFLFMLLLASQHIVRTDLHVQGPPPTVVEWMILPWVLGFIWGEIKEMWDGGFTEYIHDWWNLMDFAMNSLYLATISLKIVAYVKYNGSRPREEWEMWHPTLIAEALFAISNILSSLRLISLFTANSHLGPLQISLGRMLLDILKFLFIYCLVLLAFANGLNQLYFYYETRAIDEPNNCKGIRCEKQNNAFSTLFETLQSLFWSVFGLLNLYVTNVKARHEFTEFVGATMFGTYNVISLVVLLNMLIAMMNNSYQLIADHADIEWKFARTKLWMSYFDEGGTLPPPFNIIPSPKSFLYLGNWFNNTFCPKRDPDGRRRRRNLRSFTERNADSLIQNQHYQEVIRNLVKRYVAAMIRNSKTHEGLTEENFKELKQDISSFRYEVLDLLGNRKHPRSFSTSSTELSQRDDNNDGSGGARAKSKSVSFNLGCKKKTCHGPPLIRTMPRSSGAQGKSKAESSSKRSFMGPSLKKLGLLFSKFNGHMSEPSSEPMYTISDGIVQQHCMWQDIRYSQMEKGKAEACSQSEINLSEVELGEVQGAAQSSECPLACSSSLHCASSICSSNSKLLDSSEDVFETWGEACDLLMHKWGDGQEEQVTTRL
Protocol Notes: TRPC5 automated patch clamp assay (Qpatch), current block after rosiglitazone stimulation
Assay type: cell-based
Experimental Parameters: Table 3; HEK293 cells overexpressing TRPC5; rosiglitazone stimulation; 100 mV; read-out: TRPC5_QP_ XC50_100
pIC50: −log10 of the molar value.
Readout Label: pIC50

Entry Cc1cc(F)ccc1CN1CCN(c2c(Cl)cn[nH]c2=O)CC1 has what pIC50?
5.30 to 6.00

Entry O=C1CN(c2cn[nH]c(=O)c2Cl)CCN1Cc1ccc(Cl)cc1F has what pIC50?
5.00 to 5.30

* * *

Listed compounds paired with reported IC50
Target Or System: TRPC5 (Homo sapiens, UniProt Q9UL62)
Construct: expressed in transfected cells; host or cells: HEK 293
Sequence (Q9UL62 1-973): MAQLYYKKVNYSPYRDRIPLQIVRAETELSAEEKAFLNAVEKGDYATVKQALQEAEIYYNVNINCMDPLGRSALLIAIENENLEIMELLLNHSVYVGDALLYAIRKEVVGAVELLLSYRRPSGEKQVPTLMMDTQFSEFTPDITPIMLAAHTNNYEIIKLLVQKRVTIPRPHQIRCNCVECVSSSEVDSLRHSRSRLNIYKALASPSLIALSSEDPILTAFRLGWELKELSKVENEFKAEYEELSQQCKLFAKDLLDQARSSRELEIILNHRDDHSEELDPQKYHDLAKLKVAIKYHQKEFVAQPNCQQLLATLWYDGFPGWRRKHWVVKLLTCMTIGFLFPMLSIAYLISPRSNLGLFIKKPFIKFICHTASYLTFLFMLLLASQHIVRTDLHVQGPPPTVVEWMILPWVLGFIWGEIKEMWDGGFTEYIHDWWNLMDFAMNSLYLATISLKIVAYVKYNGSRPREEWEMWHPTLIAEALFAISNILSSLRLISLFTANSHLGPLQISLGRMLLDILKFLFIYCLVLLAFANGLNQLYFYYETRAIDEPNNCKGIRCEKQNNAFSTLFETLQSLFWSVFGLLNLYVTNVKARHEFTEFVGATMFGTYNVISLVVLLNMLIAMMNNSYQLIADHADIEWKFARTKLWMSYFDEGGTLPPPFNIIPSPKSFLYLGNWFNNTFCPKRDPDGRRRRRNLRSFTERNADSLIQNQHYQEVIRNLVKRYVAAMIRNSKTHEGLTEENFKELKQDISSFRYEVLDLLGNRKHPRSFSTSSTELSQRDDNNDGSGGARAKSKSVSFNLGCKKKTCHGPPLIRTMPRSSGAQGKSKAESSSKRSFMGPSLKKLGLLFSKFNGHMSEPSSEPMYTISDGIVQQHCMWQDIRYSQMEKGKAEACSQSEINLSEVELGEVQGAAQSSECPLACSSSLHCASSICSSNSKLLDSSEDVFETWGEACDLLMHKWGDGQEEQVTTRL
Protocol Notes: TRPC5 automated patch clamp assay (Qpatch), current block after rosiglitazone stimulation
Type: cell-based
Experimental Parameters: Table 3; HEK293 cells overexpressing TRPC5; rosiglitazone stimulation; 80 mV; read-out: TRPC5_QP_ XC50_80

// solved cases for IC50 follow
- Input Smiles: "O=c1[nH]ncc(N2CCN(Cc3ccccc3OC(F)(F)F)CC2)c1Cl"
  Target Or System: "TRPC5 (Homo sapiens, UniProt Q9UL62)"
  Readout Label: "IC50"
  Observed Result: "1 to 5 µM"
- Input Smiles: "O=C1CN(c2cn[nH]c(=O)c2Br)CCN1CC1CCCCC1"
  Target Or System: "TRPC5 (Homo sapiens, UniProt Q9UL62)"
  Readout Label: "IC50"
  Observed Result: "1 to 5 µM"
- Input Smiles: "O=c1[nH]ncc(N2CCN(Cc3ccc(F)cc3Cl)CC2)c1Cl"
  Target Or System: "TRPC5 (Homo sapiens, UniProt Q9UL62)"
  Readout Label: "IC50"
  Observed Result: "1 to 5 µM"
- Input Smiles: "COc1c(N2CCN(Cc3ccccc3C)C(=O)C2)cn[nH]c1=O"
  Target Or System: "TRPC5 (Homo sapiens, UniProt Q9UL62)"
  Readout Label: "IC50"
  Observed Result: "10 to 500 µM"

GET /values?readout=IC50&system=TRPC5 (Homo sapiens, UniProt Q9UL62)&item= Cc1ccccc1CN1C2CC1CN(c1cn[nH]c(=O)c1Br)C2
10 to 500 µM

GET /values?readout=IC50&system=TRPC5 (Homo sapiens, UniProt Q9UL62)&item= O=c1[nH]ncc(N2CCN(Cc3cccc(C(F)(F)F)c3)CC2)c1Cl
1 to 5 µM
